Ref: PubChem BioAssay (NCI)

test: NCI Yeast Anticancer Drug Screen. Data for the cln2 rad14 strain (AID 165);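 note: 0% = growth equal to vehicle treated cultures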; settings: S. cerevisiae cln2 rad14 strain, at 50.0 µM, active compounds read high
Compounds without any hit were thinned out: in the full panel of roughly 79,000, 15% have a hit.
Label rule, in plain words: growth inhibition of -20% and up is Y, under -20% is N.

Test whether the compound CC(=O)OCC1OC(n2c(Br)nc3c(N)ncnc32)C(O)C1O (stereo unspecified) records growth inhibition of -20% or higher.
Y

Identify whether the reported growth inhibition of the following compound is -20% or greater: C=C[C@]1(C)CC(=O)C(C(C)C=O)[C@]12C(=O)Oc1cccc(C)c1C2=O (stereo partly specified)
Y

Check this compound for growth inhibition at or above -20%: "O=C(c1ccc(Cl)cc1Cl)C(CS(=O)(=O)O)CS(=O)(=O)O"
N

New cases:
Identify whether the reported growth inhibition of the following compound is -20% or greater: "Brc1cccc(-c2nnc(-c3cccc4ccccc34)o2)c1"
N

Assess whether reported growth inhibition for "O=[N+]([O-])c1ccc(C2=NCC=CCO2)cc1" sits at -20% or higher.
Y

Textbook exercise: given the entry "CCCCCc1ccc2oc(=O)c3ccc(C)cc3c2c1O" , state whether its growth inhibition is greater than or equal to -20%.
Y

---

test: NCI Yeast Anticancer Drug Screen. Data for the mec2-1 strain (AID 157); details: S. cerevisiae mec2-1 strain, at 50.0 µM, active compounds read high
About 79,000 compounds went through this panel and 15% of them were active in at least one assay; those are over-represented in the sample as a whole.
growth inhibition vs -10%: at or above is 1, below is -1.

Before answering, review these 8 worked examples.
Quick check, growth inhibition >= -10%? "O=C(Nc1ccc(S(=O)(=O)N2CCCCC2)cc1)OC1CCCC1"
1

Dear colleague, could you confirm whether C[C@@H]1CC[C@]2(C)C3(C)CC[C@]2(OC3=O)[C@@]12CC(c1ccoc1)OC2=O (some centres not stated) has growth inhibition at or above -10%?
-1

Tell me whether growth inhibition is at least -10% here: "c1cc(Nc2ccncc2)ccn1"
-1

I'd appreciate it if you could say whether "NNC(=S)N/N=C/c1ccco1" has growth inhibition at least equal to -10%.
1

I'd appreciate it if you could say whether "CCC1(CC)C(=O)N(C(=O)c2ccc(Cl)cc2)N(C(=O)c2ccccc2Cl)C1=O" has growth inhibition at least equal to -10%.
1

Does growth inhibition meet or surpass -10% for "CCN(CC)c1ccc2cc(-c3nc4ccccc4n3C)c(=O)oc2c1" ?
1

# check: growth inhibition of "N#C/C(=C\c1cccc(Cl)c1)C(=O)c1ccccc1" is greater than or equal to -10%
1

# check: growth inhibition of "Nc1cc(Cc2ccccc2)ccc1O" is greater than or equal to -10%
1

Next:
Say whether "OCCCN1CCCCC1" shows growth inhibition of -10% or more.
-1

Hi team, for "c1coc(CNc2ncnc3nccnc23)c1" , is the recorded growth inhibition at or above -10%?
1

Test whether the compound "CCOC(=O)c1sc(C(=O)OCC)c(O)c1O" records growth inhibition of -10% or higher.
1

Dear colleague, could you confirm whether COc1ccc(/C=C2\SC(c3ccc(OC)cc3)N(NC(=O)Cc3ccccc3)C2=O)cc1 (configuration not stated) has growth inhibition at or above -10%?
-1

---

experiment: NCI Yeast Anticancer Drug Screen. Data for the mlh1 rad18 strain (AID 175); conditions: S. cerevisiae mlh1 rad18 strain growth inhibition; at 50.0 µM; active compounds read high
The panel holds about 79,000 compounds, 15% with a hit somewhere; the sample as a whole holds those more often.
Value Type: growth inhibition (%)
// units = %; emit number, no label

Kindly note the recorded growth inhibition for CC(C(=O)c1ccccc1)C(c1ccccc1)N1CCOCC1 (stereo not drawn) , which is -5.15

For CC12CCC(C1)C(C)(C)/C2=N\O (stereo not drawn) the molecule record lists growth inhibition as 2.65

The molecule identified as "N#Cc1cccc(Nc2ccccc2SSc2ccccc2Nc2cccc(C#N)c2)c1" registered its growth inhibition at 12.8

Quick note, growth inhibition for N=S(=O)(c1ccccc1)c1ccccc1[N+](=O)[O-] (stereo not drawn) landed at 57.2

Sample O=C(OCC(OC(=O)c1ccccc1)C(OC(=O)c1ccccc1)C(COC(=O)c1ccccc1)OC(=O)c1ccccc1)c1ccccc1 (stereo not drawn) ; growth inhibition observed: 52.4

Others:
Form field growth inhibition, entry "CC/C(=C\c1ccccc1O)c1ccncc1" : -0.65

// sample C=CC(Br)(CBr)CCC(Cl)C(C)C (stereo not drawn) , its growth inhibition was 90.5

Sure, the documented growth inhibition for CC1(C#N)CC/C(=C\c2ccc3c(c2)OCO3)C(=O)C1 (stereo not drawn) is -4.6

For this molecule ( "CCOC(=O)c1nc2c(Cl)c3ncccc3cc2[nH]c1=O" ), measured growth inhibition is 20.4

The molecule identified as "CN(C)Cc1ccnc(Cl)n1" registered its growth inhibition at -8.1

Item: COC(=O)Nc1nc2ccc(C3c4c(n[nH]c4C)CC(C)(O)C3C(C)=O)cc2[nH]1 (stereo not drawn) | growth inhibition: 10.6

Reported growth inhibition of CS(=O)(=O)C(CCC(=O)c1cccs1)C(=O)c1ccccc1 (stereo not drawn) : 14.4

// growth inhibition lookup, molecule = COC1OC(COCc2ccccc2)C(OCc2ccccc2)C(OC)C1O (stereo not drawn) , result: -17.6

---

assay: NCI Yeast Anticancer Drug Screen. Data for the sgs1 mgt1 strain (AID 161);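 note: 0% = growth of cultures given vehicle only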; settings: S. cerevisiae sgs1 mgt1 strain, at 50.0 µM, active compounds read high
About 79,000 compounds went through this panel and 15% of them were active in at least one assay; those are over-represented in the sample as a whole.
Value Type: growth inhibition (%)
Enter your answer as a number in %; do not include the unit.

Lookup result for "Nc1cc(Cl)cc2c1nc(NCCO)c1ccccc12" ; measured growth inhibition: 49.1

Looking up "O=[N+]([O-])/C(N=Nc1ccc2ccccc2c1Br)=N/Nc1ccc2ccccc2c1Br" , I found its growth inhibition recorded as 19.4

New cases:
The reported growth inhibition of the compound "Ic1ccc(Nc2ncnc3sc4c(c23)CCCC4)cc1" was -16.9

---

assay: NCI Yeast Anticancer Drug Screen. Data for the rad50 strain (AID 155);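 note: 0% = growth of vehicle-only cultures of the same strain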; details: S. cerevisiae rad50 strain growth inhibition; at 50.0 µM
This is part of a sample that, as a whole, favours compounds with a hit. Of some 79,000 tested, about 15% had one in any assay. Active and inactive are the calls of the source. No stated cut-off is given here; in the data, active means growth inhibition above about 70%; inactive means the rest.
Pick one: 1 = active, -1 = inactive

# fetch the recorded call for C1=CC([P+](Cc2ccccc2)(c2ccccc2)c2ccccc2)CC1 (stereo unspecified) here
1

Which result was noted for this compound in the test: "COc1ccc(C2(c3ccc(OC)cc3)c3ccccc3Cc3c(OC)cccc32)cc1"
-1

Identify the outcome logged in this assay for the compound shown: CCCCC(CC)CSC[N+](C)(CC)CC (stereo unspecified)
-1

Returns: the outcome recorded for CC1CS(=O)(=O)CC(C)S1(=O)=O (stereo unspecified) in this assay.
-1

Short answer needed: outcome of this test for "CC(C)CN(CC(C)C)C(=O)CCl" ?
-1

Name the outcome recorded for CN(CCO)CC(O)Cn1cnc2c(N)ncnc21 (stereo unspecified) in the assay.
-1

# lookup: test call for NC(=O)c1csc(C2OC3COP(=O)(O)OC3C2O)n1 (stereo unspecified)
-1

Please let me know the test result on file for "c1ccc(CCN2CCN=C2Cc2ccccc2)cc1" .
-1

Call for entry CC(=O)OC1CC2C(CCC3CC(C(C)=O)CCC32C)C2CCC(/C(C)=C/C=C(c3ccccc3)c3ccccc3)C12C (stereo unspecified) :
-1

Record request — test call for "O=C(/C=C/C(=O)NCc1ccccc1)NCc1ccccc1"
-1

Here is the next item to consider.
Lab log entry: CN(C)c1ncnc2c1cnn2C1OC(CO)C(O)C1O (stereo unspecified) — outcome as called in the assay?
-1

---

test: NCI Yeast Anticancer Drug Screen. Data for the cln2 rad14 strain (AID 165);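 note: 0% = growth equal to vehicle treated cultures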; conditions: S. cerevisiae cln2 rad14 strain, at 50.0 µM
This is part of a sample that, as a whole, favours compounds with a hit. Of some 79,000 tested, about 15% had one in any assay. The source made the active and inactive calls. Cut-off read from the data, not from the text of the source: active = growth inhibition above about 70%; inactive = the rest.
Give your call using only these classes: active, inactive

Solved cases below.
Any idea what this test logged for O=C1NCC(c2ccccc2)(C2CC2)O1 (stereo unspecified) ?
inactive

I would be grateful if you could indicate the recorded call for "C[C@H](C(=O)C12CC3CC(CC(C3)C1)C2)[C@H](O)c1ccccc1" .
inactive

Please indicate how the test categorized "Nc1nc(N)c2nc3c(nc2n1)CCCCCC3" .
inactive

# lookup: test call for Nc1cccc(CC(NC(=O)c2ccccc2)C(=O)O)c1 (stereo unspecified)
inactive

Would you mind telling me which call this test gave "CCCCCCC(=O)OC[n+]1ccc2c(C)c3[nH]c4ccc(OC)cc4c3c(C)c2c1" ?
active

Short answer needed: outcome of this test for "CCC[CH2][Sn]([CH2]CCC)([O]C(=O)c1ccc(OC)c(OC)c1OC)[O][Sn]([CH2]CCC)([CH2]CCC)[O]C(=O)c1ccc(OC)c(OC)c1OC" ?
active

Hi, sorry to bother you, what did the test record for CC1CC(C)(C)NC(C2CCC=CO2)O1 (stereo unspecified) ?
inactive

State the result this test recorded for "CCCCCCCCCCCCCC(N)=O" .
inactive

More entries:
Entry "O=NN(CCCl)C(=O)Oc1ccc2ccccc2c1" : call = ?
inactive

Given CC1(C)CC(=O)C2=C(C1)NC(=S)C(C#N)C2c1ccccc1 (stereo unspecified) , state the outcome it received in this test.
inactive

Fill in: this test's call for "C=C(C)c1ccc2c(c1)C(=O)C[C@@H]1[C@](C)(C#N)CCC[C@]21C" is ___
inactive
